Test system: smooth muscle cells
Experimental Protocol: Penetration of carrier-conjugated peptides into smooth muscle cells; immunofluorescence of α-SM-actin polymerization
Type: cell-based, Wistar rats
Stated Conditions: 1 mg/ml in cell culture solution, 1 hour after treatment
Numbered stars: 1 amine (or outer) side, 2 acyl side, 3 side chain; on linkers, the order of the positions; unused ones are H or OH. Ethylenediamine = C(CN[*:2])N[*:1]
Recorded Metric: fluorescein staining (left picture)

Below, 4 substances whose answers are already recorded.
- Substance: "Ac-Glu-Glu-Glu-Asp-Lys-NH—CH2—CH2—NH-hexadecanoylamide (Ac-EEEDK-{Ethylenediamine-hexadecanoyl}) [reference compound]"
  fluorescein staining (left picture): "strong"
- Substance: "Ac-Glu-Glu-Glu-Asp-Lys(ε-D,L-6,8-dithiooctanoylamide)-NH—CH2—CH2—NH—C═O—(CH2)6—CH3 (Ac-EEEDK(D,L‑6,8‑dithiooctanoyl)-{Ethylenediamine-octanoyl})"
  fluorescein staining (left picture): "slight"
- Substance: "Ac-Glu-Glu-Glu-Asp-NH2 (Ac-EEED-NH2) [reference compound]"
  fluorescein staining (left picture): "strong"
- Substance: "Ac-Glu-Glu-Glu-Asp-Lys-NH—CH2—CH2—NH—C═O—(CH2)6—CH3 (Ac-EEEDK-{Ethylenediamine-octanoyl}) [reference compound]"
  fluorescein staining (left picture): "strong"

*Q* Name the reported fluorescein staining (left picture) value associated with the substance Ac-Glu-Glu-Glu-Asp-Lys(E-D,L-6,8-dithiooctanoylamide)-NH—CH2—CH2—NH-hexadecanoylamide (Ac-EEEDK(D,L‑6,8‑dithiooctanoyl)-{Ethylenediamine-hexadecanoyl})
*A* slight

Data origin, for the record: patent US20020035243A1
